# System: K. pneumoniae 848844
# protocol_details: microbe, parasite or virus in culture
# Format: cell-based, Klebsiella pneumoniae
# assay_conditions: Klebsiella pneumoniae; K. pneumoniae 848844 producing SHV-11 and KPC-2; read-out: MIC K. pneumoniae 848844
observable: MIC

Please review the entries below; each comes with its answer.
CCN1CCN(C(=O)NC(C(=O)N[C@H]2Cc3cccc(C(=O)O)c3OB2O)c2ccc(O)c(S(N)(=O)=O)c2)C(=O)C1=O (stereo partly drawn) [Example 143] | > 128 µg/mL
C[C@H]1CN(CCN)C(=O)C(=O)N1C(=O)NC(C(=O)N[C@H]1Cc2cccc(C(=O)O)c2OB1O)c1ccc(O)c(O)c1Cl (stereo partly drawn) [Example 248] | 2 to 4 µg/mL
C[C@@H](O)[C@@H](NC(=O)N1CCN(CCF)C(=O)C1=O)C(=O)N[C@H]1Cc2ccc(F)c(C(=O)O)c2OB1O [Example 126] | 32 to 64 µg/mL
CCN1CCN(C(=O)NC(C(=O)N[C@H]2Cc3cccc(C(=O)O)c3OB2O)c2ccc(OCCCN)cc2F)C(=O)C1=O (stereo partly drawn) [Example 209] | > 128 µg/mL
CCN1CCN(C(=O)NC(C(=O)N[C@H]2Cc3ccc(F)c(C(=O)O)c3OB2O)c2csc(N)n2)C(=O)C1=O (stereo partly drawn) [Example 109] | 32 to 64 µg/mL

Now examine the next entry.
*Q* For the molecule CCN1C[C@H](C)N(C(=O)NC(C(=O)N[C@H]2Cc3cccc(C(=O)O)c3OB2O)c2ncc(O)cc2F)C(=O)C1=O (stereo partly drawn) [Example 192] , what MIC is on record?
*A* 32 to 64 µg/mL

---

# experimental_target: E. coli PBP3 (Escherichia coli (strain K12), UniProt P0AD68)
# Sequence (P0AD68 whole entry): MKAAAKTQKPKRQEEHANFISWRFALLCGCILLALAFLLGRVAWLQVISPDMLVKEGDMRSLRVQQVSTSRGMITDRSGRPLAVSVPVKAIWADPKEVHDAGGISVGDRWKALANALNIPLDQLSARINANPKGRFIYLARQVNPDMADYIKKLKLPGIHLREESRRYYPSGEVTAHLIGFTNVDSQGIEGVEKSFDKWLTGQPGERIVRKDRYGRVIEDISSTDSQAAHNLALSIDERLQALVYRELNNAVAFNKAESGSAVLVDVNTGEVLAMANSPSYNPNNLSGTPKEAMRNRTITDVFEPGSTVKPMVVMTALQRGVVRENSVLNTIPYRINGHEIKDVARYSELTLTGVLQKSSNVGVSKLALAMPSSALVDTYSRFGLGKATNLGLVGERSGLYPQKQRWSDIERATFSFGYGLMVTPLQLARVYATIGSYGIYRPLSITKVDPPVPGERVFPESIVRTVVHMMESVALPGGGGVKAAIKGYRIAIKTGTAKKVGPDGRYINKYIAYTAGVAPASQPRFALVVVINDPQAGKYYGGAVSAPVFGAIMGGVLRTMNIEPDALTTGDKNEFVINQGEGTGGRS
# protocol_details: E. coli PBP3 Bocillin-FL fluorescence polarization competition binding assay
# assay_conditions: fluorescence polarization competition binding with Bocillin-FL; read-out: E. coli K12 PBP3 Potency
pEC50: −log10 of the molar value. Where a name gives a salt, the structure may show the parent alone.
observable: pEC50

Please review the entries below; each comes with its answer.
CCN1CCN(C(=O)N[C@H](CNCC(=O)O)C(=O)N[C@H]2Cc3cccc(C(=O)O)c3OB2O)C(=O)C1=O [Example 73, trifluoroacetic acid salt] | < 3.30
CCN1CCN(C(=O)NC(C(=O)N[C@H]2Cc3cccc(C(=O)O)c3OB2O)c2ccc(S(N)(=O)=O)cc2F)C(=O)C1=O (stereo partly shown) | > 4.52
CCN1CCN(C(=O)NC(C(=O)N[C@H]2Cc3cccc(C(=O)O)c3OB2O)c2ccc(O)cn2)C(=O)C1=O (stereo partly shown) | > 4.52

*Q* For the compound CCN1CCN(C(=O)NC(C(=O)N[C@H]2Cc3cccc(C(=O)O)c3OB2O)c2ccc(O)cc2F)C(=O)C1=O (stereo partly shown) , what pEC50 is on record?
*A* > 4.52

*Q* Please answer likewise for CCN1CCN(C(=O)NC(C(=O)N[C@H]2Cc3cccc(C(=O)O)c3OB2O)c2ccc(O)c(O)c2)C(=O)C1=O (stereo partly shown)
*A* > 4.52

*Q* Please answer likewise for CCN1CCN(C(=O)NC(C(=O)N[C@H]2Cc3cccc(C(=O)O)c3OB2O)c2ccc(CCN)cc2)C(=O)C1=O (stereo partly shown)
*A* < 3.30

*Q* Please answer likewise for CCN1CCN(C(=O)N[C@@H](C(=O)N[C@H]2Cc3cc(O)c(O)c(C(=O)O)c3OB2O)[C@H](C)O)C(=O)C1=O
*A* < 3.30

*Q* Please answer likewise for CCN1CCN(C(=O)N[C@H](C(=O)N[C@H]2Cc3ccc(F)c(C(=O)O)c3OB2O)[C@H](O)C(F)(F)F)C(=O)C1=O
*A* < 3.30

*Q* Please answer likewise for O=C(O)c1cccc2c1OB(O)[C@@H](NC(=O)C(NC(=O)N1CCN(CCF)C(=O)C1=O)c1ncc(O)cc1F)C2 (stereo partly shown)
*A* > 4.52

*Q* Please answer likewise for CCN1CCN(C(=O)NC(C(=O)N[C@H]2Cc3cc(F)c(F)c(C(=O)O)c3OB2O)c2ccc(O)c(O)c2Cl)C(=O)C1=O (stereo partly shown)
*A* > 4.52

---

# Test system: P. aeruginosa (ΔmexAB-oprM)
# protocol_details: microbe, parasite or virus in culture
# Assay type: cell-based
# assay_conditions: Pseudomonas aeruginosa, read-out: MIC P. aeruginosa ΔmexAB-OprM
observable: MIC

Please review the entries below; each comes with its answer.
O=C(O)c1cccc2c1OB(O)[C@@H](NC(=O)C(NC(=O)N1C[C@@H]3CCCN3C(=O)C1=O)c1ccc(O)c(O)c1Cl)C2 (some centres unmarked) | < 0.25 mg/L
O=C(O)c1c(F)ccc2c1OB(O)[C@@H](NC(=O)C(NC(=O)N1CCN(CCF)C(=O)C1=O)c1ncc(O)cc1F)C2 (some centres unmarked) | 32 to 64 mg/L
CCN1CCN(C(=O)NC(C(=O)N[C@H]2Cc3ccc(F)c(C(=O)O)c3OB2O)c2ccc(O)c(O)c2Cl)C(=O)C1=O (some centres unmarked) | < 0.25 mg/L
CCN1CCN(C(=O)N[C@@H](C(=O)N[C@H]2Cc3cccc(C(=O)O)c3OB2O)c2ccc(S(N)(=O)=O)c(OC)c2)C(=O)C1=O | 8 to 16 mg/L

*Q* For the compound CCN1C[C@H](CO)N(C(=O)NC(C(=O)N[C@H]2Cc3cccc(C(=O)O)c3OB2O)c2ncc(O)cc2F)C(=O)C1=O (some centres unmarked) , what MIC is on record?
*A* 32 to 64 mg/L

*Q* Please answer likewise for CCN1CCN(C(=O)N[C@@H](C(=O)N[C@H]2Cc3cccc(C(=O)O)c3OB2O)c2ccc(O)c(O)c2Cl)C(=O)C1=O
*A* < 0.25 mg/L

*Q* Please answer likewise for CCN1CCN(C(=O)NC(C(=O)N[C@H]2Cc3ccc(F)c(C(=O)O)c3OB2O)c2ncc(O)cc2Cl)C(=O)C1=O (some centres unmarked)
*A* 8 to 16 mg/L

*Q* Please answer likewise for CCN1CCN(C(=O)NC(C(=O)N[C@H]2Cc3ccc(Cl)c(C(=O)O)c3OB2O)c2ccc(O)c(O)c2Cl)C(=O)C1=O (some centres unmarked)
*A* < 0.25 mg/L

*Q* Please answer likewise for CCN1CCN(C(=O)NC(C(=O)N[C@H]2Cc3cccc(C(=O)O)c3OB2O)c2ccc(OC)nc2Cl)C(=O)C1=O (some centres unmarked)
*A* 32 to 64 mg/L

*Q* Please answer likewise for NS(=O)(=O)c1ccc(C(NC(=O)N2CCN(CCF)C(=O)C2=O)C(=O)N[C@H]2Cc3ccc(F)c(C(=O)O)c3OB2O)cc1 (some centres unmarked)
*A* 8 to 16 mg/L

*Q* Please answer likewise for CCN1CCN(C(=O)NC(C(=O)N[C@H]2Cc3ccc(F)c(C(=O)O)c3OB2O)c2ncc(O)cc2F)C(=O)C1=O (some centres unmarked)
*A* 8 to 16 mg/L

*Q* Please answer likewise for CCN1CCN(C(=O)N[C@@H](C(=O)N[C@H]2Cc3ccc(F)c(C(=O)O)c3OB2O)c2ccsc2)C(=O)C1=O
*A* 32 to 64 mg/L

*Q* Please answer likewise for CCN1CCN(C(=O)N[C@H](C(=O)N[C@H]2Cc3ccc(F)c(C(=O)O)c3OB2O)c2ccc(O)c(O)c2Cl)C(=O)C1=O
*A* 0.5 to 1 mg/L

*Q* Please answer likewise for CCN1CCN(C(=O)NC(C(=O)N[C@H]2Cc3cccc(C(=O)O)c3OB2O)c2nc(N)sc2F)C(=O)C1=O (some centres unmarked)
*A* 2 to 4 mg/L

*Q* Please answer likewise for CCN1CC(C)(C)N(C(=O)NC(C(=O)N[C@H]2Cc3cccc(C(=O)O)c3OB2O)c2ncc(O)cc2F)C(=O)C1=O (some centres unmarked)
*A* > 128 mg/L

*Q* Please answer likewise for CCCN1CCN(C(=O)NC(C(=O)N[C@H]2Cc3ccc(F)c(C(=O)O)c3OB2O)c2ccc(O)c(O)c2Cl)C(=O)C1=O (some centres unmarked)
*A* < 0.25 mg/L

---

# experimental_target: E. coli PBP1b (Escherichia coli (strain K12), UniProt P02919)
# Sequence (P02919 whole entry): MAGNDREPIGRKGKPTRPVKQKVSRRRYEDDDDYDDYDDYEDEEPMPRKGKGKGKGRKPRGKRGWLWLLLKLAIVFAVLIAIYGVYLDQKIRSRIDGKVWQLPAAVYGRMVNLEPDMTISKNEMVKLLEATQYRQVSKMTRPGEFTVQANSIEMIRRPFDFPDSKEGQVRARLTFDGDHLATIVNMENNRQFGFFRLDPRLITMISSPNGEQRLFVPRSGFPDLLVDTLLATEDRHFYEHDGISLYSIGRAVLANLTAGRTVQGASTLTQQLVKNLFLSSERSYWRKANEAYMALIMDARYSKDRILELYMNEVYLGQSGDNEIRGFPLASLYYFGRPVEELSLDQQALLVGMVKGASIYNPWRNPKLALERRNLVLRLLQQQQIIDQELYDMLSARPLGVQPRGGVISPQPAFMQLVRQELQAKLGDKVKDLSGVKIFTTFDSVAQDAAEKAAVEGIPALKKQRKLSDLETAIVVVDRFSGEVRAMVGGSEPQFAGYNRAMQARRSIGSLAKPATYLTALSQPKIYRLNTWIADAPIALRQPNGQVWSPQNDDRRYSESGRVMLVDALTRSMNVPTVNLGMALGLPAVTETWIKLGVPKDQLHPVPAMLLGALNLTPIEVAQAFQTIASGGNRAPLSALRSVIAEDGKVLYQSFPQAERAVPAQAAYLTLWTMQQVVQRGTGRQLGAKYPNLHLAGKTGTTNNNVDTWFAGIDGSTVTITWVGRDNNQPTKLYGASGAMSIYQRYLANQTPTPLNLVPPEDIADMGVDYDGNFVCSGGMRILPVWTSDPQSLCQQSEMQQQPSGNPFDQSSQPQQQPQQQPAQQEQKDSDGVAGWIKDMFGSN
# protocol_details: Radioligand competition binding assay with 14C-labeled boronic acid probe, PBP1b
# assay_conditions: read-out: E. coli K12 PBP1b EC50; competition binding with 14C-labeled boronic acid probe
pEC50: −log10 of the molar value.
observable: pEC50

*Q* For the compound CCN1CCN(C(=O)NC(C(=O)N[C@H]2Cc3cccc(C(=O)O)c3OB2O)C(Cl)CCCO)C(=O)C1=O (stereo partly shown) , what pEC50 is on record?
*A* < 4.00

---

# experimental_target: E. coli PBP3 (Escherichia coli (strain K12), UniProt P0AD68)
# protocol_details: E. coli PBP3 Bocillin-FL fluorescence polarization competition binding assay
# assay_conditions: fluorescence polarization competition binding with Bocillin-FL; read-out: E. coli K12 PBP3 Potency
pEC50: −log10 of the molar value. Structures can show the parent of a compound that is named as a salt.
Reported pEC50 values for a set of compounds

*Q* For the compound CC[C@H]1CN(CC)C(=O)C(=O)N1C(=O)NC(C(=O)N[C@H]1Cc2cccc(C(=O)O)c2OB1O)c1ncc(O)cc1F (some centres unmarked) [Example 218] , what pEC50 is on record?
*A* > 4.52

*Q* Please answer likewise for CCN1CCN(C(=O)N[C@H](C(=O)N[C@H]2Cc3cccc(C(=O)O)c3OB2O)[C@H](O)C(F)F)C(=O)C1=O [Example 174]
*A* < 3.30

*Q* Please answer likewise for CCN1CCN(C(=O)N[C@@H](C(=O)N[C@H]2Cc3ccc(F)c(C(=O)O)c3OB2O)[C@H](O)C(F)F)C(=O)C1=O [Example 163]
*A* > 4.52

*Q* Please answer likewise for CCN1C[C@H](C)N(C(=O)NC(C(=O)N[C@H]2Cc3cccc(C(=O)O)c3OB2O)c2ncc(O)cc2F)C(=O)C1=O (some centres unmarked) [Example 192]
*A* > 4.52

*Q* Please answer likewise for CCN1CCN(C(=O)NC(C(=O)N[C@H]2Cc3cccc(C(=O)O)c3OB2O)C2CCNC2)C(=O)C1=O (some centres unmarked) [Example 55, trifluoroacetic acid salt]
*A* < 3.30

*Q* Please answer likewise for NS(=O)(=O)c1ccc(C(NC(=O)N2CCN(CCF)C(=O)C2=O)C(=O)N[C@H]2Cc3cccc(C(=O)O)c3OB2O)c(F)c1 (some centres unmarked) [Example 204]
*A* > 4.52

*Q* Please answer likewise for CCN1CCN(C(=O)NC(C(=O)N[C@H]2Cc3cccc(C(=O)O)c3OB2O)c2cccc(O)c2O)C(=O)C1=O (some centres unmarked) [Example 44]
*A* < 3.30
